Molecular target: full-length beta-Catenin (Uniprot ID P35222) (Homo sapiens (Human)) (UniProt P35222)
Sequence (P35222 whole entry): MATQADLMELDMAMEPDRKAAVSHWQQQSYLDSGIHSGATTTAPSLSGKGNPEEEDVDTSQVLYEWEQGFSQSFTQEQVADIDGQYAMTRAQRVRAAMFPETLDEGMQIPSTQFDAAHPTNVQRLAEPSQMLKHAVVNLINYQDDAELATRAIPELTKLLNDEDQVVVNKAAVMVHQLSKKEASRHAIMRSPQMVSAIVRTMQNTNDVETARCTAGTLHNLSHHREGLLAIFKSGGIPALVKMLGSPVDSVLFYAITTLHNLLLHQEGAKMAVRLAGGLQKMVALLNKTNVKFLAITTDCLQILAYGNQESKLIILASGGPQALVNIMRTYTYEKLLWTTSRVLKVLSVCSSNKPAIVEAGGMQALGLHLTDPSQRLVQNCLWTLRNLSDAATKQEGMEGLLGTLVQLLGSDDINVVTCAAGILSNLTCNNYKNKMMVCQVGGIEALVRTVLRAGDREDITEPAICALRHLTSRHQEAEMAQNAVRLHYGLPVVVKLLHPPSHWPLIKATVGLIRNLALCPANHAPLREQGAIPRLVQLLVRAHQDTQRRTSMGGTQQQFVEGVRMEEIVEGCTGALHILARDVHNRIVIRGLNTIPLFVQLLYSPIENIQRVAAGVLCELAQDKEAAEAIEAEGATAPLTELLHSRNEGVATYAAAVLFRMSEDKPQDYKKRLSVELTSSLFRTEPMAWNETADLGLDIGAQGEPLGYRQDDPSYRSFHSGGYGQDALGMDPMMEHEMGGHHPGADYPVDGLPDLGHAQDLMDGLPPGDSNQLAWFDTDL
Assay: fluorescence polarization competition; 10 nM full-length beta-catenin + 10 nM 5FAM-TCF4(10-53) probe
pIC50: −log10 of the molar value. Starred links: 1 amine or outer side, 2 acyl side, 3 side chain; linkers in the order of their positions; H or OH if unused. Positions of bridges follow the written chain, without caps; N, C: chain ends. Non-standard residues stand in square brackets, D forms with d. Primed or numbered codes have the meaning given here. PyrS2″ = (S)-3-amino-1-((pent-4-en-1-yloxy)carbonyl)pyrrolidine-3-carboxylic acid (stapling residue), C=CCCCOC(=O)N1CC[C@@](N[*:1])(C(=O)[*:2])C1; B5(18) = 2,2-bis(4-pentenyl)glycine (2-amino-2-(pent-4-en-1-yl)hept-6-enoic acid), stitching residue, C=CCCCC(CCCC=C)(N[*:1])C(=O)[*:2]; B5(4) = 2,2-bis(4-pentenyl)glycine = 2-amino-2-(pent-4-en-1-yl)hept-6-enoic acid (stitching residue), C=CCCCC(CCCC=C)(N[*:1])C(=O)[*:2]; B5(5) = 2,2-bis(4-pentenyl)glycine, 2-amino-2-(pent-4-en-1-yl)hept-6-enoic acid (stitching residue), C=CCCCC(CCCC=C)(N[*:1])C(=O)[*:2]; TfeGA = (S)-2-amino-3-((carboxymethyl)(2,2,2-trifluoroethyl)amino)propanoic acid, O=C([C@H](CN(CC(=O)[*:3])CC(F)(F)F)N[*:1])[*:2]; Phe(2-Cl) = N[C@@H](Cc1ccccc1Cl)C(=O)O; Bta = N[C@@H](Cc1csc2ccccc12)C(=O)O; Lys(iPr) = CC(C)NCCCC[C@H](N)C(=O)O; αAllylPro = C=CC[C@@]1(C(=O)O)CCCN1; tBuAla = CC(C)(C)C[C@H](N)C(=O)O; 3Thi = N[C@@H](Cc1ccsc1)C(=O)O
Quantity Name: pIC50

Binder: Ac-[αAllylPro]D[tBuAla][B5(18)]DDAAFT[PyrS2″][Phe(2-Cl)][Bta]Q-NH2 (staple 1-4, 4-11) [I-1013]
Test Result: 8.10
--
Binder: Ac-[αAllylPro]D[tBuAla][B5(18)]D[TfeGA]AKFN[PyrS2″][Phe(2-Cl)][Bta]Q-NH2 (staple 1-4, 4-11) [I-1006]
Test Result: 8.30
--
Binder: Ac-[αAllylPro]D[tBuAla][B5(5)]D[TfeGA]AFFN[PyrS2″][Phe(2-Cl)][Bta]Q-NH2 (staple 1-4, 4-11) [I-1003]
Test Result: 7.42

P = Ac-[αAllylPro]D[tBuAla][B5(18)]D[TfeGA]FAFN[PyrS2″][Phe(2-Cl)][Bta]Q-NH2 (staple 1-4, 4-11) [I-1008]
Q = Ac-[αAllylPro]D[tBuAla][B5(4)]NT[Lys(iPr)]AFN[PyrS2″][3Thi][Bta]Q-NH2 (staple 1-4, 4-11; not fully specified; printed as Ac-PL3-Asp-Npg-B5-Asn-Thr-iPrLys-Ala-Phe-Asn-PyrS2-3Thi-BztA-Gln-NH2) [I-2005]
Problem: Among P and Q , whose measured pIC50 is the smaller figure? Returns: label corresponding to the selected item.
Result: Q
